EXPERIMENTAL PROTOCOL: Phase 1 SAD/MAD study in healthy volunteers: pharmacokinetics
Assay type: in vivo, human
TEST CONDITIONS: both sexes, human, in vivo, oral; approximately
QUANTITY KIND: half-life

Query: Please report the recorded half-life for COc1cc2c(-c3cnn4cc(N5CCC(N6CCN(C)CC6)CC5)cnc34)ccnc2cc1F [Formula I-11] .
Response: 10 to 15 h

The reported measurements were obtained from patent US12458693B2.
